Parameter: Induction factor. Scope: all listed entries.
- TARGET_UNDER_TEST: PPARα (Homo sapiens, UniProt Q07869)
- Construct: expressed in transfected cells; host or cells: COS-7 cells
- Sequence (Q07869 239-466 limits assumed): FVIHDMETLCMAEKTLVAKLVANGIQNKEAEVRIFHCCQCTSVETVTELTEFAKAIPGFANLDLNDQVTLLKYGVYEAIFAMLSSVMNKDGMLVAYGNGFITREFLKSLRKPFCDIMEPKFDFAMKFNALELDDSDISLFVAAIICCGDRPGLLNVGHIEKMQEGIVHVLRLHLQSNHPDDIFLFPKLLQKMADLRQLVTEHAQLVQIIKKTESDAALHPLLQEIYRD
- PROTOCOL: PPARα/Gal4 transactivation system in COS-7 cells
- Assay type: cell-based
- CONDITIONS: 0.3 μM, 24 hours
Just the number, please, no unit after it.

A selection of reference data follows.
Memo: "Cc1cc(/C=C/C(=O)c2ccc(Oc3ccccc3)cc2)cc(C)c1OC(C)(C)C(=O)O" , reported Induction factor: 20.82

Memo: "Cc1cc(/C=C/C(=O)c2ccc(OCCSC3CCCCC3)cc2)cc(C)c1OC(C)(C)C(=O)O" , reported Induction factor: 8.08

***
Memo: "Cc1cc(/C=C/C(=O)c2c(C)c(C)c(C)c(C)c2C)cc(C)c1OC(C)(C)C(=O)O" , reported Induction factor: 1.73

====

- TARGET_UNDER_TEST: PPARγ (Homo sapiens, UniProt P37231)
- Construct: expressed in transfected cells; host or cells: COS-7 cells
- Sequence (P37231 238-503 limits assumed): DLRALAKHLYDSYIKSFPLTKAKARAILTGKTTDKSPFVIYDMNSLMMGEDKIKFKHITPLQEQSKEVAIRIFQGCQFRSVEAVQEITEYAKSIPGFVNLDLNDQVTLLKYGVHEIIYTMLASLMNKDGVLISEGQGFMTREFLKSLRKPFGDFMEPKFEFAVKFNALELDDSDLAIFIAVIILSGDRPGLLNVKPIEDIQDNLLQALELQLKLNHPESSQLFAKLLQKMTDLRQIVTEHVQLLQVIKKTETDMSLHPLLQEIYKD
- PROTOCOL: PPARγ/Gal4 transactivation system in COS-7 cells
- Type: cell-based
- CONDITIONS: 10 μM, 24 hours
TEST_READOUT: Induction factor

A selection of reference data follows.
Memo: Cc1cc(/C=C/C(=O)c2ccc(OCCCCCC3CCSS3)cc2)cc(C)c1OC(C)(C)C(=O)O (racemic) , reported Induction factor: 6.83

Memo: "CSc1ccc(C(=O)/C=C/c2cc(Br)c(OC(C)(C)C(=O)O)c(Br)c2)cc1" , reported Induction factor: 2.74

Memo: "Cc1cc(/C=C/C(=O)c2ccc(Oc3ccccc3)cc2)cc(C)c1OC(C)(C)C(=O)O" , reported Induction factor: 6.30

Let us examine a further case.
Memo: "Cc1cc(C(=O)/C=C/c2cc(C)c(OC(C)(C)C(=O)O)c(C)c2)cc(C)c1O" , reported Induction factor: 5.82

====

- TARGET_UNDER_TEST: PPARα (Homo sapiens, UniProt Q07869)
- Construct: expressed in transfected cells; host or cells: COS-7 cells
- PROTOCOL: PPARα/Gal4 transactivation system in COS-7 cells
- Format: cell-based
- CONDITIONS: 0.03 μM, 24 hours
TEST_READOUT: Induction factor
Just the number, please, no unit after it.

Lab note: compound "COc1ccc(C(=O)/C=C/c2cc(C)c(OC(C)(C)C(=O)O)c(C)c2)cc1F" tested on PPARα (Homo sapiens, UniProt Q07869); recorded Induction factor was 2.53

Lab note: compound "Cc1cc(/C=C/C(=O)c2ccc(OCCSC3CCCCC3)cc2)cc(C)c1OC(C)(C)C(=O)O" tested on PPARα (Homo sapiens, UniProt Q07869); recorded Induction factor was 4.22

Lab note: compound "Cc1cc(/C=C/C(=O)c2ccc(Oc3ccccc3)cc2)cc(C)c1OC(C)(C)C(=O)O" tested on PPARα (Homo sapiens, UniProt Q07869); recorded Induction factor was 19.71

====

- TARGET_UNDER_TEST: PPARα (Homo sapiens, UniProt Q07869)
- Construct: expressed in transfected cells; host or cells: COS-7 cells
- PROTOCOL: PPARα/Gal4 transactivation system in COS-7 cells
- Format: cell-based
- CONDITIONS: 0.1 μM, 24 hours
Where Induction factor equals or exceeds 7, the correct label is T; where it does not, the label is F.

Look over these answered cases.
Task: Is reported Induction factor greater than or equal to 7 here: CCCCCCSc1c(C)cc(C(=O)/C=C/c2cc(C)c(OC(C)(C)C(=O)O)c(C)c2)cc1C [compound 39]
Output: T

Task: Is reported Induction factor greater than or equal to 7 here: COc1ccc(C(=O)/C=C/c2cc(C)c(OC(C)(C)C(=O)O)c(C)c2)cc1F [compound 35]
Output: T

Task: Is reported Induction factor greater than or equal to 7 here: Cc1cc(/C=C/C(=O)c2ccc(Oc3ccccc3)cc2)cc(C)c1OC(C)(C)C(=O)O [compound 33]
Output: T

Task: Is reported Induction factor greater than or equal to 7 here: Cc1cc(/C=C/C(=O)c2c(C)c(C)c(C)c(C)c2C)cc(C)c1OC(C)(C)C(=O)O [compound 31]
Output: F

***
Task: Is reported Induction factor greater than or equal to 7 here: COc1ccc(C(=O)/C=C/c2cc(C)c(OC(C)(C)C(=O)O)c(C)c2)cc1C [compound 37]
Output: T

Task: Is reported Induction factor greater than or equal to 7 here: CSc1c(C)cc(C(=O)/C=C/c2cc(C)c(OC(C)(C)C(=O)O)c(C)c2)cc1C [compound 13]
Output: T

====

- TARGET_UNDER_TEST: PPARα (Homo sapiens, UniProt Q07869)
- Construct: expressed in transfected cells; host or cells: COS-7 cells
- PROTOCOL: PPARα/Gal4 transactivation system in COS-7 cells
- Format: cell-based
- CONDITIONS: 0.001 μM, 24 hours
Parameter: Induction factor. Scope: all listed entries.
Just the number, please, no unit after it.

Memo: Cc1cc(/C=C/C(=O)c2ccc(OCCSC3CCCCC3)cc2)cc(C)c1OC(C)(C)C(=O)O [compound 23] , reported Induction factor: 1.11

Memo: CSc1c(C)cc(C(=O)/C=C/c2cc(C)c(OC(C)(C)C(=O)O)c(C)c2)cc1C [compound 13] , reported Induction factor: 1.10

***
Memo: Cc1cc(/C=C/C(=O)c2c(C)c(C)c(C)c(C)c2C)cc(C)c1OC(C)(C)C(=O)O [compound 31] , reported Induction factor: 1.10

Memo: CCCCCCSc1c(C)cc(C(=O)/C=C/c2cc(C)c(OC(C)(C)C(=O)O)c(C)c2)cc1C [compound 39] , reported Induction factor: 1.08

Memo: Cc1cc(/C=C/C(=O)c2ccc(Oc3ccccc3)cc2)cc(C)c1OC(C)(C)C(=O)O [compound 33] , reported Induction factor: 5.23

====

- System: LDL
- PROTOCOL: Protection against LDL oxidation by copper (conjugated diene formation)
- Assay type: biochemical
- CONDITIONS: FIG. 7a; 10^−4M; absence of compounds 67.3 minutes
TEST_READOUT: lag phase (min)
State the answer as a number, implicitly in min.

A selection of reference data follows.
Memo: COc1ccc(OC)c(C(=O)/C=C/c2cc(C)c(OC(C)(C)C(=O)O)c(C)c2)c1 [compound 41] , reported lag phase: 100

Memo: Cc1cc(/C=C/C(=O)c2ccc(Oc3ccccc3)cc2)cc(C)c1OC(C)(C)C(=O)O [compound 33] , reported lag phase: 148

Memo: CSc1c(C)cc(C(=O)/C=C/c2cc(C)c(OC(C)(C)C(=O)O)c(C)c2)cc1C [compound 13] , reported lag phase: 219

Let us examine a further case.
Memo: COc1ccc(C(=O)/C=C/c2cc(C)c(OC(C)(C)C(=O)O)c(C)c2)cc1C(F)(F)F [compound 47] , reported lag phase: 126.5

====

- TARGET_UNDER_TEST: PPARα (Homo sapiens, UniProt Q07869)
- Construct: expressed in transfected cells; host or cells: COS-7 cells
- PROTOCOL: PPARα/Gal4 transactivation system in COS-7 cells
- Assay type: cell-based
- CONDITIONS: 0.03 μM, 24 hours
Parameter: Induction factor. Scope: all listed entries.
Just the number, please, no unit after it.

Memo: "Cc1cc(/C=C/C(=O)c2c(C)c(C)c(C)c(C)c2C)cc(C)c1OC(C)(C)C(=O)O" , reported Induction factor: 1.23

Memo: "CCCCCCSc1c(C)cc(C(=O)/C=C/c2cc(C)c(OC(C)(C)C(=O)O)c(C)c2)cc1C" , reported Induction factor: 7.69

Memo: "COc1ccc(C(=O)/C=C/c2cc(C)c(OC(C)(C)C(=O)O)c(C)c2)cc1C" , reported Induction factor: 2.54

Let us examine a further case.
Memo: "CSc1c(C)cc(C(=O)/C=C/c2cc(C)c(OC(C)(C)C(=O)O)c(C)c2)cc1C" , reported Induction factor: 10.89
